Catalogue of substances with associated EC50
- Test system: TGF-β1
- protocol-description: EC50 of TGF-β1 siRNA candidates before and after modification, knockdown in cells
- Type: cell-based, human
- conditions-used: SK-Hep1 cells, homo, 24 h, 24well (Table 6); read-out: EC50 (nM, 24 h, 24well) SK-Hep1
Oligonucleotides are written 5' to 3', each unit as a sugar letter and its base; * is a phosphorothioate linkage, no mark a phosphodiester; rarer units and linkages stand in square brackets, end groups in braces. Plain capitals give the bases only. {P} = phosphorylation (indicated by P); d = 2'-deoxy (DNA); m = 2'-O-methyl; r = 2'-OH (RNA); f = 2'-fluoro
Give just the number in nM; leave the unit off.

Examples with answers:
TF1-21-hm6#mod: Modified (2′F, 2′OME, phosphorylation) siRNA targeting TGF-β1; sense SEQ ID 148, antisense SEQ ID 152 (sense mCmGmGmCmAmGfCfUfGmUmAmCmAmUmUmGmAmCmUdTdT; antisense {P}-mAfGmUmCmAmAmUmGmUmAmCmAmGfCmUmGmCmCmGdTdT): 0.59
TF1-21-hm3#: siRNA targeting TGF-β1 mRNA; sense SEQ ID 23, antisense SEQ ID 33 (sense AACUAUUGCUUCAGCUCCATT; antisense UGGAGCUGAAGCAAUAGUUTT; sugars from the 5' end r19 d2, backbone not given here): 3.16
TF1-21-hm6#: siRNA targeting TGF-β1 mRNA; sense SEQ ID 26, antisense SEQ ID 36 (sense CGGCAGCUGUACAUUGACUTT; antisense AGUCAAUGUACAGCUGCCGTT; sugars from the 5' end r19 d2, backbone not given here): 0.22

Field: next substance
Task: Would you kindly share the measured EC50 for TF1-21-hm3#mod: Modified (2′F, 2′OME, phosphorylation) siRNA targeting TGF-β1; sense SEQ ID 147, antisense SEQ ID 151 (sense mAmAmCmUmAmUfUfGfCmUmUmCmAmGmCmUmCmCmAdTdT; antisense {P}-mUfGmGmAmGmCmUmGmAmAmGmCmAfAmUmAmGmUmUdTdT) ?
Output: 2.64

----------
- Test system: TGF-β1
- protocol-description: EC50 of TGF-β1 siRNA candidates before and after modification, knockdown in cells
- Format: cell-based
- conditions-used: 293T cells, homo, 24h, 24well (second TGF-β1 table)
Oligonucleotides are written 5' to 3', each unit as a sugar letter and its base; * is a phosphorothioate linkage, no mark a phosphodiester; rarer units and linkages stand in square brackets, end groups in braces. Plain capitals give the bases only. {P} = phosphate; d = 2'-deoxy (DNA); m = 2'-O-methyl; r = 2'-OH (RNA); f = 2'-fluoro
Catalogue of substances with associated EC50
Please don't drop the unit; write it after the number.

TF1-20190711-1#mod: Modified siRNA targeting TGF-β1; sense SEQ ID 149, antisense SEQ ID 153 (sense GCAGAGUACACACAGCAUATT; antisense UAUGCUGUGUGUACUCUGCTT; sense: sugars from the 5' end m6 f3 m10 d2, backbone not given here; antisense: sugars from the 5' end mfmmmmmmmmmmmfmmmmmdd, 5' {P}, backbone not given here): 0.25 nM

Task: Would you kindly share the measured EC50 for TF1-21-hm6#mod: Modified (2′F, 2′OME, phosphorylation) siRNA targeting TGF-β1; sense SEQ ID 148, antisense SEQ ID 152 (sense mCmGmGmCmAmGfCfUfGmUmAmCmAmUmUmGmAmCmUdTdT; antisense {P}-mAfGmUmCmAmAmUmGmUmAmCmAmGfCmUmGmCmCmGdTdT) ?
Output: 0.1 nM

Task: TF1-21-hm6#: siRNA targeting TGF-β1 mRNA; sense SEQ ID 26, antisense SEQ ID 36 (sense CGGCAGCUGUACAUUGACUTT; antisense AGUCAAUGUACAGCUGCCGTT; sugars from the 5' end r19 d2, backbone not given here) , same question.
Output: 0.11 nM

Task: TF1-20190711-1#: siRNA targeting TGF-β1 mRNA; sense SEQ ID 1, antisense SEQ ID 2 (sense GCAGAGUACACACAGCAUATT; antisense UAUGCUGUGUGUACUCUGCTT; sugars from the 5' end r19 d2, backbone not given here) , same question.
Output: 0.08 nM

----------
- System: VEGFR2
- protocol-description: EC50 of VEGFR2 siRNA candidates before and after modification, knockdown in cells
- Assay type: cell-based, human
- conditions-used: MD-MB-231 cells, 24 h, 24well; read-out: EC50 (nM, 24 h, 24well) Breast cancer MD-MB-231
Oligonucleotides are written 5' to 3', each unit as a sugar letter and its base; * is a phosphorothioate linkage, no mark a phosphodiester; rarer units and linkages stand in square brackets, end groups in braces. Plain capitals give the bases only. {P} = phosphorylation (indicated by P); d = 2'-deoxy (DNA); m = 2'-O-methyl; r = 2'-OH (RNA); f = 2'-fluoro
reported-metric: EC50 (nM)
Give just the number in nM; leave the unit off.

VEGFR2-21-h7#: siRNA targeting VEGFR2 mRNA; sense SEQ ID 66, antisense SEQ ID 109 (sense GCUGACAUGUACGGUCUAUTT; antisense AUAGACCGUACAUGUCAGCTT; sugars from the 5' end r19 d2, backbone not given here): 1.72
VEGFR2-21-h1#mod: Modified (2′F, 2′OME, phosphorylation) siRNA targeting VEGFR2; sense SEQ ID 131, antisense SEQ ID 139 (sense mGmCmCmUmAmGfUfGfUmUmUmCmUmCmUmUmGmAmUdTdT; antisense {P}-mAfUmCmAmAmGmAmGmAmAmAmCmAfCmUmAmGmGmCdTdT): 0.23

Field: next substance
Task: Would you kindly share the measured EC50 for VEGFR2-21-h7#mod: Modified (2′F, 2′OME, phosphorylation) siRNA targeting VEGFR2; sense SEQ ID 138, antisense SEQ ID 146 (sense mGmCmUmGmAmCfAfUfGmUmAmCmGmGmUmCmUmAmUdTdT; antisense {P}-mAfUmAmGmAmCmCmGmUmAmCmAmUfGmUmCmAmGmCdTdT) ?
Output: 51.4

----------
- Tested on: VEGFR2
- protocol-description: EC50 of VEGFR2 siRNA candidates before and after modification, knockdown in cells
- Assay type: cell-based, human
- conditions-used: U87-MG cells, 24 h, 24well; read-out: EC50 (nM, 24 h, 24well) Brain cancer U87-MG
- Description: MDA-MB-231 and U87 cells were seeded in 24-well cell plates (1 × 10^5/well), and then siRNAs (21mer or 25mer or negative control) were transfected with commercial transfection reagent (lipo2000), and the siRNA transfection concentration was 100 nM. […] Relative levels of target gene VEGFR2 mRNA expression were determined by real-time PCR, normalized to the housekeeping gene β-actin. Gene knockdown effectiveness was expressed as a percentage of the blank control. […]
Oligonucleotides are written 5' to 3', each unit as a sugar letter and its base; * is a phosphorothioate linkage, no mark a phosphodiester; rarer units and linkages stand in square brackets, end groups in braces. Plain capitals give the bases only. {P} = phosphorylation (indicated by P); d = 2'-deoxy (DNA); m = 2'-O-methyl; r = 2'-OH (RNA); f = 2'-fluoro
Catalogue of substances with associated EC50
Give just the number in nM; leave the unit off.

Examples with answers:
VEGFR2-25-h 4#mod: Modified (2′F, 2′OME, phosphorylation) siRNA targeting VEGFR2; sense SEQ ID 134, antisense SEQ ID 142 (sense mCmCmCmUmUmGmAmGmUmCmCmAfAfUfCmAmCmAmCmAmAmUmUmAmA; antisense {P}-mUfUmAmAmUmUmGmUmGmUmGmAmUfUmGmGmAmCmUmCmAmAmGmGmG): 34.6
VEGFR2-21-h7#mod: Modified (2′F, 2′OME, phosphorylation) siRNA targeting VEGFR2; sense SEQ ID 138, antisense SEQ ID 146 (sense mGmCmUmGmAmCfAfUfGmUmAmCmGmGmUmCmUmAmUdTdT; antisense {P}-mAfUmAmGmAmCmCmGmUmAmCmAmUfGmUmCmAmGmCdTdT): 170

Field: next substance
Task: Would you kindly share the measured EC50 for VEGFR2-21-h5#: siRNA targeting VEGFR2 mRNA; sense SEQ ID 64, antisense SEQ ID 107 (sense GCAUCAGCAUAAGAAACUUTT; antisense AAGUUUCUUAUGCUGAUGCTT; sugars from the 5' end r19 d2, backbone not given here) ?
Output: 25.5

----------
- Tested on: VEGFR2
- protocol-description: EC50 of VEGFR2 siRNA candidates before and after modification, knockdown in cells
- Format: cell-based, human
- conditions-used: MD-MB-231 cells, 24 h, 24well; read-out: EC50 (nM, 24 h, 24well) Breast cancer MD-MB-231
d = 2'-deoxy (DNA); r = 2'-OH (RNA)
reported-metric: EC50 (nM)
Give just the number in nM; leave the unit off.

VEGFR2-21-h1#: siRNA targeting VEGFR2 mRNA; sense SEQ ID 60, antisense SEQ ID 103 (sense GCCUAGUGUUUCUCUUGAUTT; antisense AUCAAGAGAAACACUAGGCTT; sugars from the 5' end r19 d2, backbone not given here): 0.2

Field: next substance
Task: Would you kindly share the measured EC50 for VEGFR2-25-h4#: siRNA targeting VEGFR2 mRNA; sense SEQ ID 44, antisense SEQ ID 87 (sense CCCUUGAGUCCAAUCACACAAUUAA; antisense UUAAUUGUGUGAUUGGACUCAAGGG; RNA, backbone not given here) ?
Output: 0.38
